This collection of values is drawn from the supplement of paper PMC10266784.

B1: library; numbered along this chain (parent)
chain: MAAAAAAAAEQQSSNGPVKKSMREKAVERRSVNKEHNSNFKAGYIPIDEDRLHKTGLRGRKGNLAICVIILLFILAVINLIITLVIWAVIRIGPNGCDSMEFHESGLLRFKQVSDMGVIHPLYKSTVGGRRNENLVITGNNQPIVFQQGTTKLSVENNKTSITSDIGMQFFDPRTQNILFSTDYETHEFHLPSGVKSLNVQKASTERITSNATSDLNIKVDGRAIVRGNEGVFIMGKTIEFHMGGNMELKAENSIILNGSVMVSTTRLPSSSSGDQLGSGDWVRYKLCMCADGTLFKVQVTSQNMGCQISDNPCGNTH

- Variants of: B1
- method-notes: SGCB cell-surface expression functional score (HA stain, bin4 vs bin1, normalised to synonymous) (log10 ratio); higher = more cell-surface SGCB (functional)
Output Met for SGCB cell-surface expression functional score (log10) not less than -0.2; output Not met otherwise.

Observe how each entry below is paired with its result.
mutations	class
A251C	Met
N304L	Met
D165Y	Not met
I86L	Not met
Q112A	Not met
S271L	Met
R207L	Not met
S310R	Met
V32Y	Not met
P94K	Met

Query: Hi, just wondering whether F102D shows SGCB cell-surface expression functional score (log10) of -0.2 or higher.
Response: Not met

Query: Similarly, T238A ?
Response: Met

Query: Similarly, T265Y ?
Response: Met

Query: Similarly, D48F ?
Response: Met

Query: Similarly, A224I ?
Response: Met

Query: Similarly, T294E ?
Response: Not met

Query: Similarly, V136G ?
Response: Not met

Query: Similarly, L287F ?
Response: Met

Query: Similarly, F73Q ?
Response: Met
